Data provenance is patent US20240270821A1.

measurement_target: hGIPR (Homo sapiens)
Sequence (P48546 22-466): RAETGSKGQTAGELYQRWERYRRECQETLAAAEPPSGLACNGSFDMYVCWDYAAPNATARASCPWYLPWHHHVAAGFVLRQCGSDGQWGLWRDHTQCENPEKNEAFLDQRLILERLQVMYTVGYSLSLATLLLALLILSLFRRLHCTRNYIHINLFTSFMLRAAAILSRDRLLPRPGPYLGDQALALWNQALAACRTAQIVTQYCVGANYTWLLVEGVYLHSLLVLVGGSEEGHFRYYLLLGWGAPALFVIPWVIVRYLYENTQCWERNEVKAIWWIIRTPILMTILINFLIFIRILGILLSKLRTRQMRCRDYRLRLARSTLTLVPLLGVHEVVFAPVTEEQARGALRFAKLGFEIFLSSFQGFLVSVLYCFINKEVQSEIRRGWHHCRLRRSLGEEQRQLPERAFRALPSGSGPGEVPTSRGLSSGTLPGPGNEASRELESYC
test_summary: Functional cAMP activation in the presence of 0.1% casein (no HSA);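 note: intracellular cAMP rise after 30 min at 37 °C read by HTRF against a standard curve, scaled between buffer alone (0%) and top control ligand concentration (100%), four-parameter fit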
Assay type: cell-based
assay_context: in the presence of 0.1% casein (no HSA); geometric mean; read-out: Relative cAMP EC50, hGIPR
Starred links: 1 amine or outer side, 2 acyl side, 3 side chain; linkers in the order of their positions; H or OH if unused. Non-standard residues stand in square brackets, D forms with d. Groups on a side chain read outwards from the residue. *: point of attachment. C18 diacid = O=C(O)CCCCCCCCCCCCCCCCC(=O)*; γGlu = O=C(O)[C@H](CCC(=O)[*:2])N[*:1]; αMe4Pal = C[C@](N)(Cc1ccncc1)C(=O)O; Hyp = O=C(O)[C@@H]1C[C@@H](O)CN1; 4Pal = N[C@@H](Cc1ccncc1)C(=O)O; αMeL = CC(C)C[C@](C)(N)C(=O)O; Orn = NCCC[C@H](N)C(=O)O; AEEA = NCCOCCOCC(=O)O; Aib = CC(C)(N)C(=O)O
Friendly reminder: EC50 below 0.3 nM is Y, at or above is N.

Query block: Lab note: EC50 threshold 0.3 nM. Does this substance come in strictly under it? H-Y[Aib]QGTFTSD[4Pal]S[Orn][αMeL]LDKK([AEEA-γGlu-C18 diacid])AQ[αMe4Pal]AFIEYLIE[Aib]GESSGAPPPSGS-NH2 [Example 223]
Result block: Y

Query block: Check if EC50 falls below 0.3 nM for H-Y[Aib]QGTFTSD[4Pal]SQ[αMeL]LDKK([AEEA-γGlu-C18 diacid])AQ[αMe4Pal]AFIEWLIEGGPSSGAPPPSGT-NH2 [Example 831] .
Result block: N

Query block: For H-Y[Aib]QGTFTSDFS[Orn][αMeL]LDKK([AEEA-γGlu-C18 diacid])AQ[Aib]AFIEWLLEGGESSGEPPPSGE-NH2 [Example 123] , is the recorded EC50 below the cut-off of 0.3 nM?
Result block: N

Query block: Please indicate whether the reported EC50 of H-Y[Aib]QGTFTSDFS[Orn][αMeL]LDKK([AEEA-γGlu-C18 diacid])AQ[Aib]AFIEWLLEGGESSGAPPPEGS-NH2 [Example 125] is strictly below 0.3 nM.
Result block: N

Query block: Find out if reported EC50 for H-Y[Aib]QGTFTSDFS[Orn][αMeL]LDKK([AEEA-γGlu-C18 diacid])AQ[Aib]AFIEYLLEGGPSSGAP[Hyp]PGGS-NH2 [Example 236] is less than 0.3 nM
Result block: N
